# target_or_test_system: rat metabotropic glutamate receptor 5 (mGluR5) (Rattus norvegicus, UniProt P31424)
# Construct: expressed in transfected cells; host or cells: HEK 293
# Sequence (P31424 21-1171 isoform P31424-2 limits assumed): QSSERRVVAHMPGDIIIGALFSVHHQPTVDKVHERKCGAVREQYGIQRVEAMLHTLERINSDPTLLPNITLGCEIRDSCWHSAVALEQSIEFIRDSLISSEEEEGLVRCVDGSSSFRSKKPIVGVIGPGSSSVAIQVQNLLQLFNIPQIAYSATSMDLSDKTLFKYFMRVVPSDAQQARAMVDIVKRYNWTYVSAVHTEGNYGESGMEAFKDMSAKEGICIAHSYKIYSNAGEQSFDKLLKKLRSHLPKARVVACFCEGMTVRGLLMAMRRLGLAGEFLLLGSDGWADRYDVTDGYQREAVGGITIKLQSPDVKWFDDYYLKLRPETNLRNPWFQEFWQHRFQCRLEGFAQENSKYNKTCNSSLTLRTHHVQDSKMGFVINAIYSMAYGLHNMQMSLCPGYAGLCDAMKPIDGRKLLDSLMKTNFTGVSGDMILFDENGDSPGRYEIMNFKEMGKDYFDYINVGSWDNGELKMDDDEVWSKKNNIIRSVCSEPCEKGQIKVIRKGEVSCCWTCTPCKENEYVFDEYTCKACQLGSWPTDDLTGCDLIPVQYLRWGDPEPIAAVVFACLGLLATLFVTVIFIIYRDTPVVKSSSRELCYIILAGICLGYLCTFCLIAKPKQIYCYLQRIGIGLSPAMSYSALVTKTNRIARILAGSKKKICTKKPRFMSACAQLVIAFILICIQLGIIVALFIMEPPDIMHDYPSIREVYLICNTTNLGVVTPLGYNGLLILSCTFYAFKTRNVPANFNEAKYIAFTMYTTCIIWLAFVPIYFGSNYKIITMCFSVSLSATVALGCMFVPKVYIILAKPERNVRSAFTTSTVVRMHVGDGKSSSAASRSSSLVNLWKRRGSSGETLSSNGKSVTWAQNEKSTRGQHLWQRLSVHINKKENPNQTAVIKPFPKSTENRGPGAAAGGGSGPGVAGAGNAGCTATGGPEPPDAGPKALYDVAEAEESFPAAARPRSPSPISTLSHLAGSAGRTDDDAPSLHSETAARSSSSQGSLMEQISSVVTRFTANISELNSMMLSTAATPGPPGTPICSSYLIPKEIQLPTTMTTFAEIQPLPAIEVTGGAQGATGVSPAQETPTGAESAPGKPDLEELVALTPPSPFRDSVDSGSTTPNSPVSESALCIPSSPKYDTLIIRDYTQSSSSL
# measurement_notes: Calcium mobilization assay (FLIPR) for negative or positive allosteric activity, HEK 293 cells
# Assay type: cell-based
# condition_summary: HEK293, negative allosteric modulation, inhibition of EC80 glutamate response; read-out: FLIPR maximum inhibition
Recorded Emax values for a group of molecules are listed next.
observed_property: Emax

molecule	target_or_test_system	result
O=C(NC12CC3CC(C1)CC(NC(=O)c1cccc(-n4ccnc4)n1)(C3)C2)c1cccc(F)c1 [Example 255]	rat metabotropic glutamate receptor 5 (mGluR5) (Rattus norvegicus, UniProt P31424)	63 to 99%
CCOc1cccc(C(=O)NC23CC4CC(C2)CC(NC(=O)c2cncc(C)n2)(C4)C3)c1 [Example 147]	rat metabotropic glutamate receptor 5 (mGluR5) (Rattus norvegicus, UniProt P31424)	70 to 99%
COc1cccc(C(=O)NC23CC4CC(C2)CC(NC(=O)c2ccccn2)(C4)C3)c1 [Example 80]	rat metabotropic glutamate receptor 5 (mGluR5) (Rattus norvegicus, UniProt P31424)	63 to 99%
Cc1cncc(C(=O)NC23CC4CC(C2)CC(NC(=O)c2ccc5cnccc5n2)(C4)C3)n1 [Example 174]	rat metabotropic glutamate receptor 5 (mGluR5) (Rattus norvegicus, UniProt P31424)	63 to 99%
O=C(NC12CC3CC(C1)CC(NC(=O)c1cccc(N4CCCC4)n1)(C3)C2)c1ccccn1 [Example 61]	rat metabotropic glutamate receptor 5 (mGluR5) (Rattus norvegicus, UniProt P31424)	63 to 99%
Cc1cccc(C(=O)NC23CC4CC(C2)CC(NC(=O)c2cccc(N)n2)(C4)C3)n1 [Example 117]	rat metabotropic glutamate receptor 5 (mGluR5) (Rattus norvegicus, UniProt P31424)	70 to 99%
COCCN(C)c1cccc(C(=O)NC23CC4CC(CC(NC(=O)c5cccc(F)c5)(C4)C2)C3)n1 [Example 246]	rat metabotropic glutamate receptor 5 (mGluR5) (Rattus norvegicus, UniProt P31424)	63 to 99%
Cc1cccc(C(=O)NC23CC4CC(C2)CC(NC(=O)c2cccc(N(C)CCO)n2)(C4)C3)n1 [Example 209]	rat metabotropic glutamate receptor 5 (mGluR5) (Rattus norvegicus, UniProt P31424)	63 to 99%
